- Test system: Mus musculus
- assayProcedure: Biodistribution in mouse B16F0 cells bearing C57B16 mouse tumor at 1.26 to 5.29 MBq, iv after 24 hrs
- Format: ADME, organism-based, Neoplasm
- appliedConditions: in vivo
reportedEndpoint: Drug uptake (% ID/g)

1) CCN(CC)CCNC(=O)c1cnc2cc([125I])ccc2n1.Cl.Cl	28
2) CCN(CCNC(=O)c1cccc2c(=O)c3cc([125I])ccc3[nH]c12)CCOc1cccnc1F.Cl	16
3) CCN(CCNC(=O)c1cnc2cc([125I])ccc2n1)CCNc1cccc(F)n1.Cl.Cl	8.6
4) CCN(CCNC(=O)c1cnc2cc([125I])ccc2n1)CCOc1cccnc1F.Cl.Cl	18.2

(A) CCN(CCNC(=O)c1ccc2cncc([125I])c2n1)CCOc1cccnc1F.Cl.Cl
(B) CCN(CCNC(=O)c1cnc2cc([125I])ccc2n1)c1cccc(F)n1
# query: argmin of Drug uptake over A and B Give the chosen item's label as your response.
B
(B: 0.9 % ID/g, A: 5.2 % ID/g)

----------
- Test system: Mus musculus
- assayProcedure: Biodistribution in mouse B16F0 cells bearing C57B16 mouse tumor at 1.26 to 5.29 MBq, iv after 5 days
- Type: ADME, organism-based, Neoplasm
- appliedConditions: in vivo, 120 h
reportedEndpoint: Drug uptake (% ID/g)

(1) CCN(CCNC(=O)c1cccc2c(=O)c3cc([125I])ccc3[nH]c12)CCOc1cccnc1F.Cl
(2) CCN(CCNC(=O)c1ccc2cc([125I])ccc2n1)CCOc1cccnc1F.Cl.Cl
(3) CCN(CCNC(=O)c1ccc2cncc([125I])c2n1)CCOc1cccnc1F.Cl.Cl
(4) CCN(CCNC(=O)c1cnc2cc([125I])ccc2n1)Cc1ccnc(F)c1.Cl.Cl
I would appreciate it if you could sort these 4 compounds by Drug uptake, starting from the smallest number. Record the ranking as a list of labels in the requested order.
3, 2, 1, 4
(3: 1.6 % ID/g, 2: 2.3 % ID/g, 1: 4.5 % ID/g, 4: 7.1 % ID/g)

----------
- Test system: Mus musculus
- assayProcedure: Biodistribution in mouse B16F0 cells bearing C57B16 mouse tumor at 1.26 to 5.29 MBq, iv after 24 hrs
- Format: ADME, organism-based, Neoplasm
- appliedConditions: in vivo
reportedEndpoint: Drug uptake (% ID/g)

1) CCN(CC)Cc1ccnc(F)c1CNC(=O)c1cnc2cc([125I])ccc2n1.Cl.Cl	6.4

(a) CCN(CCNC(=O)c1cn2cc([125I])ccc2n1)CCOc1cccnc1F.Cl.Cl
(b) CCN(CCNC(=O)c1ccc2cc([125I])ccc2c1)CCOc1cccnc1F.Cl
Of a versus b , which is the one with smaller reported Drug uptake? Kindly give the label for the entry you pick.
b
(b: 5.9 % ID/g, a: 15.6 % ID/g)

(I) CCN(CCNC(=O)c1cnc2cc([125I])ccc2n1)CCc1ccnc(F)c1.Cl.Cl
(II) CCN(CCNC(=O)c1ccc2cc([125I])ccc2n1)CCOc1cccnc1F.Cl.Cl
Field: lower recorded Drug uptake (choose I or II ) Your answer should be the label attached to the chosen record.
II
(II: 6.3 % ID/g, I: 11.2 % ID/g)

----------
- Tested on: Mus musculus
- assayProcedure: Biodistribution in mouse B16F0 cells bearing C57B16 mouse tumor at 1.26 to 5.29 MBq, iv after 3 hrs
- Type: ADME, organism-based, Neoplasm
- appliedConditions: in vivo
reportedEndpoint: Drug uptake (% ID/g)

1) CCN(CCNC(=O)c1ccc2cc([125I])ccc2c1)CCOc1cccnc1F.Cl	8

(P) CCN(CCNC(=O)c1cnc2cc([125I])ccc2n1)CCc1ccnc(F)c1.Cl.Cl
(Q) CCN(CC)Cc1ccnc(F)c1CNC(=O)c1cnc2cc([125I])ccc2n1.Cl.Cl
(R) CCN(CCNC(=O)c1cnc2cc([125I])ccc2n1)CCOc1cccnc1F.Cl.Cl
(S) CCN(CCCc1ccnc(F)c1)CCNC(=O)c1cnc2cc([125I])ccc2n1.Cl.Cl
Ascending by Drug uptake, please: list the molecules accordingly. Lab note: record answer as labels in requested order.
Q, S, P, R
